Test system: OVCAR-8 ovarian
assay-procedure: NCI tumour cell line growth inhibition, 48 h
measure: TGI

Example entries begin here.
- compound: "Clc1cccc(Cc2cn3cc(-c4ccccc4)nc3s2)c1Cl"
  assay-target: "OVCAR-8 ovarian"
  TGI: "> 100 µM"
- compound: "C[n+]1c2ccccc2c(NCC(=O)O)c2ccccc21"
  assay-target: "OVCAR-8 ovarian"
  TGI: "> 100 µM"

Req: State the recorded TGI for this entry: "Cn1c(=O)c2c3ccccc3n(C)c2n(C)c1=O"
Resp: > 100 µM

Req: State the recorded TGI for this entry: COC(=O)Nc1nc2ccc(S(=O)c3ccccc3)cc2[nH]1 (stereo unspecified)
Resp: > 100 µM

Req: State the recorded TGI for this entry: "O=C(CCl)N1c2ccccc2Oc2ccc3ccccc3c21"
Resp: 2.28 µM

Req: State the recorded TGI for this entry: CC(=O)Oc1c(C)c2c(c3ncccc13)OC(C)C2 (stereo unspecified)
Resp: 27.5 µM

###

Test system: NCI-H226 lung
assay-procedure: NCI tumour cell line growth inhibition, 48 h
measure: TGI

Example entries begin here.
- molecule: "CC(C)=C1C(=O)C[C@]2(C)C[C@H]3O[C@]3(C)CC[C@@H]3O[C@@]3(C)CC[C@@H]12"
  TGI: "> 50 µM"
- molecule: "COC(=O)[C@@]12C3=NO[C@]1(C(=O)OC)C(O[Si](C)(C)C(C)(C)C)[C@H]1OC(C)(C)O[C@H]1[C@@H]2C(OCc1ccccc1)CC3 (some centres undefined)"
  TGI: "> 100 µM"
- molecule: "O=C1OCN(c2ccccc2)C12CCN(Cc1ccccc1)CC2"
  TGI: "> 100 µM"
- molecule: "C[n+]1c2ccccc2c(NCC(=O)O)c2ccccc21"
  TGI: "> 100 µM"
- molecule: "CNC(=O)c1ccccc1Nc1nc(Nc2ccc(N3CCOCC3)cc2OC)ncc1Cl"
  TGI: "> 74 µM"

Req: # value lookup — system NCI-H226 lung, readout TGI, item CC(=O)OC(C)C(=O)C1c2cccc(O)c2C(=O)c2c(O)cc(C)cc21 (centres undefined)
Resp: 1.03 µM

Req: # value lookup — system NCI-H226 lung, readout TGI, item "O=C(CN1CCN(c2cc3c(cc2F)c(=O)c(C(=O)N/N=C/c2ccccc2O)cn3C2CC2)CC1)N/N=C\c1ccccc1O"
Resp: > 100 µM

Req: # value lookup — system NCI-H226 lung, readout TGI, item "CSc1ccccc1C#C/C=C\C#Cc1ccccc1N1CCCC1=O"
Resp: > 50 µM

Req: # value lookup — system NCI-H226 lung, readout TGI, item "O=[N+]([O-])C(=C(Cl)Cl)C(Cl)=C(Cl)Cl"
Resp: 3.53 µM

###

Test system: 786-0 renal
assay-procedure: NCI tumour cell line growth inhibition, 48 h
measure: TGI

Example entries begin here.
- molecule: "CC(=O)Nc1oc(C)c(C)c1S(=O)(=O)c1ccc(Cl)cc1"
  TGI: "> 100 µM"
- molecule: "O=C1NC(N/N=C/c2ccccc2)=N/C1=C\\c1ccco1"
  TGI: "55.6 µM"
- molecule: "CCCCCCCCSC1=CC(=O)c2nc3ccccc3c3ccnc1c23"
  TGI: "> 100 µM"
- molecule: "O=C(C1OC1c1ccc(Cl)cc1)C12CC3CC(CC(C3)C1)C2 (stereo unspecified)"
  TGI: "30.7 µM"
- molecule: "N#Cc1cccc2c1Sc1ccccc1N2"
  TGI: "67.2 µM"

Here is the next item to consider.
Req: State the recorded TGI for this entry: CC1=C(C(=O)OCCO[N+](=O)[O-])C(c2cccc([N+](=O)[O-])c2)C(C(=O)OC(C)C)=C(C)N1 (stereo unspecified)
Resp: 35.7 µM

###

TGI: recorded values
Test system: A549 NSCLC
assay-procedure: NCI tumour cell line growth inhibition, 48 h

Example entries begin here.
- compound: "O=C1N(Cl)C(=O)C(c2ccc(Cl)cc2)(c2ccc(Cl)cc2)N1Cl"
  assay-target: "A549 NSCLC"
  measure: "TGI"
  result: "> 100 µM"
- compound: "CCOC(=O)C1=C(C)CC2C(=O)OC(=O)C2C1(C)C (centres undefined)"
  assay-target: "A549 NSCLC"
  measure: "TGI"
  result: "> 100 µM"
- compound: "Cc1cc2nc(C(Cl)Cl)nc(-c3ccc(Cl)cc3)n2n1"
  assay-target: "A549 NSCLC"
  measure: "TGI"
  result: "3.28 µM"
- compound: "O=C(OCc1ccccc1)N(CCCCN(CCCNC(=O)C(F)(F)F)C(=O)OCc1ccccc1)CCCNC(=O)C(F)(F)F"
  assay-target: "A549 NSCLC"
  measure: "TGI"
  result: "> 100 µM"
- compound: "Nc1ccccc1-c1noc(=O)[nH]1"
  assay-target: "A549 NSCLC"
  measure: "TGI"
  result: "> 100 µM"

Req: State the recorded TGI for this entry: "CSc1ccc(/C=C2\CN(C)C/C(=C\c3ccc(SC)cc3)C2=O)cc1"
Resp: > 100 µM

Req: State the recorded TGI for this entry: "Cn1c(=O)c2c3ccccc3n(C)c2n(C)c1=O"
Resp: > 100 µM

Req: State the recorded TGI for this entry: "COc1cc2nc(C)nc(N[C@H](C)c3cc(N)cc(C(F)(F)F)c3)c2cc1O[C@H]1CCOC1"
Resp: 32.4 µM

Req: State the recorded TGI for this entry: O=C(Nc1ccccc1)OCCN=C1c2ccccc2C(Br)C(Br)c2ccccc21 (centres undefined)
Resp: 25.4 µM

Req: State the recorded TGI for this entry: "CCOC(=O)c1ncn2c1[nH]c(=S)c1ccccc12"
Resp: > 100 µM

Req: State the recorded TGI for this entry: "CC(C)=CCCc1c(C)ccc2c1C(=O)C(=O)C(C(C)C)=C2"
Resp: > 22 µM

Req: State the recorded TGI for this entry: CN1CCc2cc3c(c4c2C1C(O)c1ccccc1-4)OCO3 (centres undefined)
Resp: 52.1 µM

Req: State the recorded TGI for this entry: "CN(C)CCCNC1=C(Cl)C(=O)c2ccccc2C1=O"
Resp: 32.5 µM

Req: State the recorded TGI for this entry: "CN(C)CCNc1ccc([N+](=O)[O-])c2sc3ccccc3c(=O)c12"
Resp: 20.2 µM

Req: State the recorded TGI for this entry: C=CCC1(O)CC(n2cc(C)c(=O)[nH]c2=O)OC1CO[Si](C)(C)C(C)(C)C (centres undefined)
Resp: > 100 µM

Req: State the recorded TGI for this entry: CC1=C(C(=O)Nc2ccc(F)c(Cl)c2)C(c2ccc(Cl)cc2)NC(=O)N1 (centres undefined)
Resp: 46.3 µM

Req: State the recorded TGI for this entry: "Cc1ccc2c(c1)[nH]c(=S)n2C=C(C(N)=O)C(N)=O"
Resp: > 100 µM

Req: State the recorded TGI for this entry: "CCOC(=O)COc1cccc2c1C(=O)CCO2"
Resp: > 100 µM

Req: State the recorded TGI for this entry: "COc1ccc(-c2cc(-c3ccc(Nc4nc(Nc5ccccc5)nc(Nc5ccc(Cl)cc5)n4)cc3)nc(N)c2C#N)cc1"
Resp: > 50 µM

Req: State the recorded TGI for this entry: "NC(=O)C(=CNC(N)=S)C(N)=O"
Resp: > 100 µM

Req: State the recorded TGI for this entry: "Nc1cc2nc3ccccc3sc-2cc1=O"
Resp: 4.82 µM

###

System: UACC-62 melanoma
assay-procedure: NCI tumour cell line growth inhibition, 48 h
measure: TGI (µM)
Numeric only. Scale: µM

Example entries begin here.
- compound: "COc1cccc2c1C(=O)C1=C(C2=O)C(O)CC(C)(C)O1 (stereo unspecified)"
  TGI, µM: 60.9
- compound: "CC(=O)Oc1c(C)c2c(c3ncccc13)OC(C)C2 (stereo unspecified)"
  TGI, µM: 24.6

Req: State the recorded TGI for this entry: "CC1=CC(=O)[C@@H](O)[C@]2(C)[C@H]3[C@@]4(O)OC[C@]35[C@H]([C@@H](C)[C@H]4O)[C@@H](OC(=O)C(C)(C)CO)C(=O)O[C@@H]5C[C@@H]12"
Resp: 0.86

###

Tested on: HCT-116 colon
assay-procedure: NCI tumour cell line growth inhibition, 48 h
GI50: recorded values

Example entries begin here.
- molecule: "CNC(=O)c1ccccc1Nc1nc(Nc2ccc(N3CCOCC3)cc2OC)ncc1Cl"
  result: "537 nM"
- molecule: "NC1CCC(Nc2nc(NCc3ccc(-c4ccco4)nc3)c3ncn(C4CCCC4)c3n2)CC1 (stereo not drawn)"
  result: "32.4 nM"
- molecule: "Cc1cnc(NC(=O)C(Cc2ccccc2)NC(=O)c2ccccc2)s1 (stereo not drawn)"
  result: "2960 nM"
- molecule: "O=C(NCCNc1nccc(-c2c(-c3cccc(O)c3)nc3sccn23)n1)c1ccccc1O"
  result: "3420 nM"
- molecule: "COC(=O)c1ccc2[nH]c(O)c(C(=Nc3ccc(N(C)C(=O)CN4CCN(C)CC4)cc3)c3ccc(C)cc3)c2c1"
  result: "124 nM"

Req: State the recorded GI50 for this entry: "Clc1cccc(Cc2cn3cc(-c4ccccc4)nc3s2)c1Cl"
Resp: > 100000 nM

Req: State the recorded GI50 for this entry: "O=C(CCl)N1c2ccccc2Oc2ccc3ccccc3c21"
Resp: 358 nM

Req: State the recorded GI50 for this entry: "Oc1ccc(Cl)cc1-c1cc(-c2ccccc2Cl)[nH]n1"
Resp: 4600 nM

Req: State the recorded GI50 for this entry: COC(=O)Nc1nc2ccc(S(=O)c3ccccc3)cc2[nH]1 (stereo not drawn)
Resp: 3500 nM

Req: State the recorded GI50 for this entry: "CNC(=O)c1cc(Oc2ccc3nc(NC(=O)Nc4ccc(Cl)c(C(F)(F)F)c4)sc3c2)ccn1"
Resp: 1890 nM
